The reported measurements were obtained from a protein production outcome set (Wang et al. 2014).

# runDescription: label from the status in PepcDB records
measuredEndpoint: protein production

- biopolymerSequence: "MSQNWNADYATLAKRGFMLGAGLFLLGIAGEVAGSAVLGTLPAWGDTLLVDMEMLGILVGLLSPLVFGVVMPLTE"
  reported: "failed"
- biopolymerSequence: "MEVSSFSTVPRYCNSRSFVPELSRFRGFKVHLWDQSLVPLHFSIRKRKNTPRYLISCSQKKDVTVVDGSCMDEIYDKLAERLVPTAAAMFSPNLKRLVGLAGPPGAGKSTVANEVVRRVNKLWPQKAASFDAEVNPPDVAIVLPMDGFHLYRSQLDAMEDPKEAHARRGAPWTFDPALLLNCLKKLKNEGSVYVPSFDHGVGDPVEDDIFVSLQHKVVIVEGNYILLEEGSWKDISDMFDEKWFIDVNLDTAMQRVENRHISTGKPPDVAKWRVDYNDRPNAELIIKSKTNADLLIRSMNI"
  reported: "failed"
- biopolymerSequence: "MFSFPAVLEAGIVFLYIAVALFLATLGIWIARTFLMPNVIKEDWNSLNRISFTTVIPLSASVMNAAIIAYYGFNVHYEYLYLVNYFIDFTSILFLSFFLGYKLYTKSPVHTNEISYGLLIPPVAISSNVLLGSSLMRTQYFNSIIFLTVIGVGIALFLFLFIGIMTFASYIRDQKANAPSPMLVLPVGVSSIIVINILAIATAKSVFQIPMADALTVSFMLWAFELWNFVVAMMISLKRVFREPATISIWAYTFPMAIFSVSSLDLRSIIGRYGYITASNIVYYIGIGAWVILIVAWVYAVMSTAIFLSHIKMIAYPG"
  reported: "failed"

====

# runDescription: label from the status in PepcDB records
measuredEndpoint: protein production

A selection of reference data follows.
- biopolymerSequence: "MNIYSLFVVAIALSLDAFGVALSIGLDSCVKRKNKLLFAISFGFFQFLCTFIGAYSGFLFNTYITYVPQIIGGMIIAFVGAFMIKEGFDNKEEKLLLNFKMYFVLGISVSIDAAVVGFTMFNKISSNYVILGDSVFIGIVTLILSIIAFIISRYLKRIQLVCKYADYIGGIILVIFGLKMMFF"
  protein production: "failed"
- biopolymerSequence: "MAKITVGTENQAPIEIYYEDHGTGKPVVLIHGWPLSGRSWEYQVPALVEAGYRVITYDRRGFGKSSQPWEGYEYDTFTSDLHQLLEQLELQNVTLVGFSMGGGEVARYISTYGTDRIEKVVFAGAVPPYLYKSEDHPEGALDDATIETFKSGVINDRLAFLDEFTKGFFAAGDRTDLVSESFRLYNWDIAAGASPKGTLDCITAFSKTDFRKDLEKFNIPTLIIHGDSDATVPFEYSGKLTHEAIPNSKVALIKGGPHGLNATHAKEFNEALLLFLKD"
  protein production: "not failed"
- biopolymerSequence: "RNGGTIGGADIIAKLLEDKLGLQLNQALLGIDLFVMIVSLTYISLPQMMYALIASFMYGQIVRLVQQGGYSARGIFIVSEQAEKIARFIMDELGRGVTYLTGEGAYSGRRKKVIYVALGRRDIRELKAFLTQVDPNAFITYFDVNEVNSPEFLTIKSKYHKKRK"
  protein production: "failed"
- biopolymerSequence: "MACFMALVLARFGFGFCMLLAALVLLAAATLLATRLVGWAVRAFALERSQALASGVAIFILVALALWGCHAVGEVLYGAIGATALVGGAPHWLAGNSHVSAAALMGATTAAAMLAGGPAFWRWLRARRAAAAEQPAPRKAAPPKGAKPAARAAKAAAKTQIAPRGQRIPWLGWTAFFLLFIGAAVLAFAYIVAPIEAGASGLRLEHATRARPVYLAGLTLLGGGAFFLLAWLSRRRLPGD"
  protein production: "failed"
- biopolymerSequence: "MKSNRLIKRLDWYIIKKFLGTYVFAIALIISIAVVFDFNEKMDKLMEHEAPWDKIIFEYYMNFIPYFSNLFSPLFVFIAVIFFTSKLAENSEIIAMFSTGMSFKRMMRPYMISAAIIAAATFMMSSFIIPKGSVTRLNFEDKYIKPKKVNSVRNVQLEVDSGVIAYIDNYNDGMKTGNRFSLDKFVDKKLVSHLTARRITYDTTTVNKWTIHDYMVRELDGLKEKITKGDRIDSIINMDPSDFLIMKNQQEMLTSPELSEYIEKQKRRGFANIKEFEIEYHKRIAMSFASFILTIIGVSLSSRKTKGGMGLHLGIGLGLSFSYILFQTITSTFAINGNVPPAIAVWIPNILYAGIAFYLYQKAPK"
  protein production: "failed"
- biopolymerSequence: "MSGITMAMRGPRLEFAVGAFLLLTLASLLVLAVASTNQRWGFGSSQYTLTARFSQIGQLRAQAPVKIGGVTIGKVSDISLDPTKFDSIVTLSLDTRYKDLPADTSAGIFTSGLLGESYIGLQPGGDPDTLKPGDEIGFTQPAVDLLQLVGKYMFSGGGSGSNANVPAATNGQAPAPARTAPPPTEPHQ"
  protein production: "failed"

Next sequence, please.
Entry under test: MSLPHLSSGEVASVLPLGKQLTQTPSAALFKEHRLEVMRMVLPAGKQVGSHSVAGPSTIQCLEGEVEIGVDGAQRRLHQGDLLYLGAGAAHDVNAITNTSLLVTVVLVDRGGS . Its protein production was not failed

====

# runDescription: label from the status in PepcDB records
measuredEndpoint: protein production

- biopolymerSequence: "MRERKKYGKHIPKSLSSKINKRKLIQKNICTNYKTIKIIDIYENLPYNQLNNGRTKIKEIILANDVLVVLLISGISRAYNMINGEFLCEINPNNFSVVHTIVYNSYNNTLIIAYASFPAHLQCKVIDCNDLKHGITNSSKLGILFGT"
  reported: "failed"
- biopolymerSequence: "MMKNKVNIDTIIYLVLIITSLIFIYAGSFLFEEGSFIGNRGNNRTVDADTATDRNKPFPVVHKAVSTEINGIKQKINILEIDLSSGGVKIKPALAFDTIYGFQSLKDIAINNNAYAAVNAGFFYSYGEPSGMVVIDGKVYTKSTGKYPVFVVQGKNAFLSEIKSNIWILHGNRRIAADDINREGKPGETVVYTPVFGPTNRADKLHTSYIVENNRVARKFRGDTECKIPSDGMVITFYEPISSEEKFEVGDWIGIDIDPDFGPGFQAYECGSWLVRDGQVVAVDRDDWVGLLTNRDPRTAIGVKHDGKVVLVTVDGRQPGYSVGLSSRELAGYLLTLGIKDAAMLDGGASTQMIVQNKTVNRLPARERMLGGGIVVVVDEDL"
  reported: "failed"

====

# runDescription: label from the status in PepcDB records
measuredEndpoint: protein production

- biopolymerSequence: "MIMASSAAASISMITLRNLSRNHQSHQSTFLGFSRSFHNQRISSNSPGLSTRARSTTSSTGGFFRTICSSSSNDYSRPTKIQELNVYEFNEGDRNSPAVLKLGKKPDQLCLGDLVPFTNKLYTGDLTKRIGITAGLCVLIQHVPEKKGDRFEASYSFYFGDYGHISVQGPYLTYEDTFLAITGGSGVFEGAYGQVKLRQLVYPTKLFYTFYLKGVAADLPVELTGKHVEPSKEVKPAAEAQATQPGATIANFTN"
  measuredEndpoint: "protein production"
  reported: "failed"
- biopolymerSequence: "MKIRILGSGTSTGVPEIGCTCAVCTSKDPRDCRLRTSALVYTDDATILLDCGPDFREQMLRVPFGKIDAVLISHEHYDHVGGLDDLRPFCRFGEVPIYAETYTAERLRSRMPYCFVEHSYPGVPNIPLREIEPNRPFLVNHTEVLPLRVMHGKLPILGYRIGKLGYITDMLTMPDESFEQLQGIEVLVMNALRIAPHNTHQSLSEALEAVKRIGAKETWLIHMSHHIGLQADVEKQLPPHVHFAFDGLELECLEHHHHHH"
  measuredEndpoint: "protein production"
  reported: "failed"
- biopolymerSequence: "MNLVKFTLDKANSQAYSSEQTTTEVSNMTIENGVRVLAGSMVLLSVILTWFVHPNFLWLTVFVGVNLIQSAFTGFCPAAFFLKKLGLR"
  measuredEndpoint: "protein production"
  reported: "failed"

====

# runDescription: label from the status in PepcDB records
measuredEndpoint: protein production

- biopolymerSequence: "MLIALLLISYQLIKHGYRAADIKNLYTILEGEELRRQKDLSAKLRWGIVDEILWTIIVANGAILFTAHYVLIGLKILDLIAIFVVMLSGVMLYAPLAFLFLYPVVRAFEKNFPPSNPQFLLSHGLICTVSSLIVYEKLEQLWWDPLLVGFFWIAAGFVSFFTNRRFEVLVFLLLIAPLALLSVKCPGAILPILLAKSECSLRIQATFLVKLAVLIFASLAAVALVLQVFGYKSLRELSEKRKAAIKQGKYNPLRDPIIWIAWIMLTSLGLLIASFMERGEISPNML"
  reported: "failed"
- biopolymerSequence: "MFENFSPSTMLAIKKYAYWLWLLLALSMPFNYWMAQDSAHPAFWAFSLVIAVFGIGPLLDMLFGRDPANPDEETQTPQLLGQGYYVLLTLATVPVLIGTLVWAAGVFVAFQEWGWLGRLGWILSMGTVMGAVGIVVAHELIHKDSALEQAAGGILLAAVCYAGFKVEHVRGHHVHVSTPEDASSARFGQSVYQFLPHAYKYNFLNAWRLEAVRLRKKGLPVFGWQNELIWWYLLSLALLVGFGWAFGWLGMVFFLGQAFVAVTLLEIINYVEHYGLHRRKGEDGRYERTNHTHSWNSNFVFTNLVLFHLQRHSDHHAFAKRPYQVLRHYDDSPQMPSGYAGMVVLALIPPLWRAVMDPKVRAYYAGEEFQLTAEQSERPAAS"
  reported: "failed"
